system: SF-539 CNS; test: NCI-60 one-dose screen, 48 h (100 = growth as untreated, 0 = no growth, -100 = all killed); details: 10 µM
Compounds without any hit were thinned out: in the full panel of roughly 83,000, 20% have a hit.
growth of 90% or higher: met. Under 90%: not met.

These solved cases illustrate the format of a correct answer.
• CC1=CC(C)(C)NC(=S)N1c1ccc(S(=O)(=O)O)c2cccc(S(=O)(=O)O)c12 = met
• COc1cc(-c2ccc(NC(=O)NC3CC3)c(OC)c2)ccc1NC(=O)NC1CC1 = not met
• OCCN1CCOCC1 = met
• O=C1N(C[P+](c2ccccc2)(c2ccccc2)c2ccccc2)CCCN1C[P+](c1ccccc1)(c1ccccc1)c1ccccc1 = met
• CCOC(=O)c1cc(/C=C/c2ccc(Cl)cc2Cl)on1 = not met

Is the recorded value of growth equal to or greater than 90% for this molecule? `S=c1nn[nH]c2ccccc12`
met

Decide: is the reported value of growth for `CCOC(=O)Nc1cc2c(c(N)n1)N=C(c1ccccc1)CO2` equal to or greater than 90%?
not met

I'd appreciate it if you could say whether `CC1(C)N=C(N)N=C(N)N1c1ccc(Cl)cc1` has growth at least equal to 90%.
not met

// inclusive: growth at least 90%? input: `CC(=O)Oc1ccc(Br)cc1C(=O)O`
met

Item `COc1ccccc1NC(=O)c1cc2cc(Br)ccc2cc1O` with growth of 90% or above?
not met

Would you say `c1ccc2c(c1)Sc1ccccc1S2` shows growth at minimum 90%?
met

Quick check: does O=S(=O)(O)CC(O)CN1CCN(CCO)CC1 (configuration not stated) have growth greater than or equal to 90%?
met

---

tested on: SK-OV-3 ovarian; assay: NCI-60 one-dose screen, 48 h (100 = growth as untreated, 0 = no growth, -100 = all killed); conditions: 10 µM
The panel holds about 83,000 compounds, 20% with a hit somewhere; the sample as a whole holds those more often.
quantity name: growth (%)
Number only, in %; omit the unit.

Entry under test: `Nc1ccc(N=Nc2ccc(S(=O)(=O)O)cc2)c2ccccc12` . Its growth was 72.2

---

system: TK-10 renal; assay: NCI-60 one-dose screen, 48 h (100 = growth as untreated, 0 = no growth, -100 = all killed); conditions: 10 µM unless noted
The panel holds about 83,000 compounds, 20% with a hit somewhere; the sample as a whole holds those more often.
Below, each entry is listed with its recorded growth.
Answer in %, number only, no unit symbol.

* C/C(=C\c1ccc([N+](=O)[O-])cc1)C(=O)O | 105
* Oc1ccccc1-c1nnco1 | 95.4
* O=[N+]([O-])c1ccccc1N=Nc1ccc(O)cc1O | 140

Form field growth, entry `CN(C)CCN(C)CC(C)(C)C(=O)/C=C/c1ccc(Cl)cc1` : 0.991

Field growth (entry CC1Cc2ccccc2O1 (stereo not drawn) ) reads 129

---

tested on: HCT-15 colon; test: NCI-60 one-dose screen, 48 h; conditions: 10 µM
This is part of a sample that, as a whole, favours compounds with a hit. Of some 83,000 tested, about 20% had one in any assay. Activity calls are given as the source filed them. Rule for the calls: active = growth percent below 10; inactive = the rest.
Give one outcome, nothing more. List: active, inactive

Sample answers from the record:
• CC(=O)CC(=O)N(C)C = inactive
• O/N=C/c1ccc(O)cc1O = inactive

Test call for this compound, please: `CCN(CC)c1ccc2nc3ccc(=[N+](CC)CC)cc-3oc2c1`
inactive

What is the recorded call for this compound in the test? `CN(C)CCN(C)CC(C)(C)C(=O)/C=C/c1ccc(Cl)cc1`
active

Field: outcome | Entry: `CCOc1ccc(/C=C/C(=O)c2ccccc2)cc1`
inactive

I would be grateful if you could indicate the recorded call for `COc1ccccc1NC(=O)C1=C(C)NC(C)=C(C(=O)Nc2ccccc2OC)C1c1cccc([N+](=O)[O-])c1` .
inactive

GET /call?item= `Cc1cc(=O)[nH]c(NN=C2CCCC2)n1` returns the recorded outcome of this test.
inactive

Hey, what did the test say about `O=c1[nH]n(-c2ccccc2)c(=O)cc1Cl` ?
inactive

Tell me the assay call for CC(C(=O)O)(C1CCCCC1)C1(O)CCCCC1 (stereo unspecified) please.
inactive
